- Tested on: Calu-3
- assay explanation: cell viability relative to DMSO; higher = less toxic
- experimental conditions: 72 h; 1 nM
# cell viability per entry
// units = %; emit number, no label

Previously resolved entries follow.
[[record]]
molecule = "O=C1CN(/N=C/c2ccc(-c3ccc([N+](=O)[O-])cc3)o2)C(=O)N1"
numeric_readout = 102

[[record]]
molecule = "CNC(=S)C1(c2ccccn2)CCCS1 (centres undefined) [picartamide]"
numeric_readout = 96.9

[[record]]
molecule = "O=C(O)COc1cccc(CN(Cc2ccc(-n3cccn3)cc2)S(=O)(=O)c2cccnc2)c1"
numeric_readout = 109


Reported cell viability, molecule CCCCC(=O)O[C@H]1CC[C@H]2[C@@H]3CCc4cc(O)ccc4[C@H]3CC[C@]12C [ESTRADIOL VALERATE] : ____
99.8
